# SYSTEM: human Y5 receptor (Homo sapiens, UniProt Q15761)
# Construct: expressed in transfected cells; host or cells: mouse fibroblast LM(tk-) cells, e.g. L-hY5-7 (ATCC CRL-11995)
# Sequence (Q15761 whole entry): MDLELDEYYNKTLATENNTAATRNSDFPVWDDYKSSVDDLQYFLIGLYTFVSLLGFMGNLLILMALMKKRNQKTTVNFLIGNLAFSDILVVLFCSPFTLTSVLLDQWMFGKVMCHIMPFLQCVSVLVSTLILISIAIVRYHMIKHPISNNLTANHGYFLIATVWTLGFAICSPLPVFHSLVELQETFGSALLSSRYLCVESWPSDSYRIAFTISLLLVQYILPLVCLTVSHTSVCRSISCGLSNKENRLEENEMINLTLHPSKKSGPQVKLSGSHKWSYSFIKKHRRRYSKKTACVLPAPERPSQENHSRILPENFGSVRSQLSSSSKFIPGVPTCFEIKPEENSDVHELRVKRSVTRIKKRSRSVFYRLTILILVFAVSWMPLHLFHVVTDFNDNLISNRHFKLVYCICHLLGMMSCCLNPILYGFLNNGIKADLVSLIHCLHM
# ASSAY_NAME: Radioligand binding to membranes, cloned human Y5 receptor
# MEASUREMENT_CONDITIONS: Table 6; read-out: Ki, nM hNPY-5
Note to self: Ki under 9 nM means 1, ties and anything higher get -1.

> print(dat)
                               smiles.entry  group.label
1  COc1cccc(Br)c1S(=O)(=O)NCCCCCNc1nc2c(s1)CCSc1ccccc1-2           -1
2  O=S(=O)(NCCCCCCNc1nc2c(s1)CCSc1ccccc1-2)c1cccs1            1
3  Cn1cnc(S(=O)(=O)NCCCCCNc2nc3c(s2)CCSc2ccccc2-3)c1           -1
4  O=C(NCCCCCNc1nc2c(s1)CCSc1ccccc1-2)c1ccc2ccccc2c1           -1
5  Cc1cccc(F)c1S(=O)(=O)NCCCCCCNc1nc2c(s1)CCSc1ccccc1-2            1

Lab note: confirm whether the reported Ki for this compound is below 9 nM, equality not counting. compound: `O=S(=O)(NC[C@H]1CC[C@H](Nc2nc3c(s2)CCSc2ccccc2-3)CC1)c1c(Cl)cccc1Cl`
-1

Lab note: confirm whether the reported Ki for this compound is below 9 nM, equality not counting. compound: `N#Cc1ccccc1S(=O)(=O)NC[C@H]1CC[C@H](Nc2nc3c(s2)CCSc2ccccc2-3)CC1`
-1

Lab note: confirm whether the reported Ki for this compound is below 9 nM, equality not counting. compound: `CC(C)N(C=O)[C@H]1CC[C@H](CNc2nc3c(s2)CCSc2ccccc2-3)CC1`
1

Lab note: confirm whether the reported Ki for this compound is below 9 nM, equality not counting. compound: `O=S(=O)(NC[C@H]1CC[C@H](Nc2nc3c(s2)CCSc2ccccc2-3)CC1)c1cccc(C(F)(F)F)c1`
-1

Cited source: patent US7189720B2
